Test system: Inhibin beta A chain (activin A)
Assay: small molecules binding activin A – biochemical, small-molecule microarray, 635 nm fluorescence scan, primary screen (AID 1107);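 further: mouse activin A protein probed at 4.33 µg/mL on printed slides; score merges bound-protein fluorescence near 667 nm with spot signal-to-noise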
Details: INHBA, higher = more signal
Assign class by composite z-score: not lower than 0.8 means T; lower than 0.8 means F.

1. C=CCC(OC(C)=O)[C@@H]1[C@@H](N(Cc2cc3ccccc3o2)C(=O)c2cccc3ccccc23)c2cc(OCCCO)ccc2N1C(=O)Cc1ccc(OC)cc1 (stereo not given in full) : T
2. CN1C(=O)C2C=CC(C(O)C3=C[C@H]4C[C@@H](C3)C4(C)C)N(Nc3ccc([N+](=O)[O-])cc3[N+](=O)[O-])C2C1=O (stereo not given in full) : T
3. CCOC(=O)C=Cc1cccc(OC)c1O : F
4. Cc1ccccc1/C=C/C=O : F

---

Assay: blood-stage malaria parasite viability loss – strain 3D7, DAPI fluorescence, 100 nL, primary screen (AID 1184);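 further: parasites grown inside human red blood cells in medium with human serum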
Settings: P. falciparum 3D7 growth, 3 d, higher = more signal
observable: z-score

1. C=CCC(OC(C)=O)[C@@H]1[C@@H](N(Cc2cc3ccccc3o2)C(=O)c2ccc(-c3ccccc3)cc2)c2cc(OCCCO)ccc2N1C(=O)Cc1ccc2ccccc2c1 (some centres undefined) : -0.835
2. O=C(NCc1ccccc1)[C@@H]1c2ccccc2C(=O)N(Cc2cc(F)cc(C(F)(F)F)c2)[C@H]1c1ccc(CO)cc1 : -0.0341
3. CN1C(=O)C2C=CC(C(O)C=Cc3ccc([N+](=O)[O-])cc3)N(N3CCCCC3)C2C1=O (centres undefined) : 0.986
4. COc1ccc([Si](C)(C)[C@H]2[C@H](CCO)O[C@@]3(C(=O)N(Cc4ccccc4)c4ccc(N5C(=O)COc6ccccc65)cc43)[C@@H]2C)cc1 : -1.09
5. O=C1O[C@H](c2ccccc2)[C@H](c2ccccc2)N2[C@H]1[C@@H](C(=O)Nc1nc3ccccc3s1)[C@]1(C(=O)Nc3ccc(C#CC4=CCCCC4)cc31)[C@H]2c1ccc(OCCO)cc1 : -0.985
6. C=C(C)[C@@H]1CC=C(C(O)C2C=CC3C(=O)N(Cc4ccccc4)C(=O)C3N2n2cnnc2)CC1 (some centres undefined) : -1.03
7. COC(=O)c1nc2oc1CC[C@@H](CO)NC(=O)N(C)Cc1cn(nn1)C[C@H](Cc1ccccc1)NC2=O : 1.24
8. O=C1O[C@H](c2ccccc2)[C@H](c2ccccc2)N2[C@H]1[C@@H](C(=O)NC[C@H](O)c1ccccc1)[C@]1(C(=O)Nc3ccc(C#CC4(O)CCCCCC4)cc31)[C@H]2c1ccccc1OCCO : -2.04
9. O=C1O[C@@H](c2ccccc2)[C@@H](c2ccccc2)N2[C@@H](c3ccc(O)cc3)[C@]3(C(=O)Nc4ccccc43)[C@@H](C(=O)N3CCCCCCC3)[C@H]12 : -1.54
10. C=C[C@H](C)[C@H](O)c1ccc(OCCO)cc1 : -0.996
11. C=C(/C(=C/C[C@@H](OC(C)=O)c1ccc(CO)o1)c1cnc2ccccc2c1)C(C)C : -1.43
12. CC(C)(C)OC(=O)CC[C@]1(C(=O)NCC(O)CO)N=C(c2ccc(OCCCO)cc2)O[C@H]1c1ccccc1CN=[N+]=[N-] (some centres undefined) : -0.121
13. [N-]=[N+]=Nc1ccccc1[C@@H]1OC(c2ccc(OCCCO)cc2)=N[C@]1(CCS(=O)(=O)c1ccccc1)C(=O)O : -1.19
14. O=C1O[C@H](c2ccccc2)[C@H](c2ccccc2)N2[C@H]1[C@@H](C(=O)N1CCCCCCC1)[C@]1(C(=O)Nc3ccc(C#CC4=CCCCC4)cc31)[C@H]2c1ccc(O)cc1 : -1.96

These measurements were taken from PubChem BioAssay.
